Tested on: Mus musculus
assayExplanation: Peripheral analgesic activity in Swiss albino mouse assessed as protection against acetic acid-induced writhing response at 20 mg/kg, po administered 30 mins before acetic acid challenge measured after 30 mins relative to control
Assay type: functional
Items are presented alongside their recorded Activity.
Numeric only. Scale: %

See these solved cases before continuing.
{"compound": "O=c1/c(=C/c2ccccc2)sc2nc3nc4c(c(-c5ccc(Cl)cc5)c3c(=O)n12)CCC/C4=C/c1ccc(Cl)cc1", "reading": 73.2}
{"compound": "CSc1nc2nc3c(c(-c4ccc(Cl)cc4)c2c(=O)[nH]1)CCC/C3=C/c1ccc(Cl)cc1", "reading": 50.4}
{"compound": "COc1ccc(NC2NC(SC)=Nc3nc4c(c(-c5ccc(Cl)cc5)c32)CCC/C4=C/c2ccc(Cl)cc2)cc1 (centres undefined)", "reading": 41.5}

**Query** # lookup: Activity of O=c1[nH]c(=S)[nH]c2c1C(c1ccc(Cl)cc1)C1=C(N2)/C(=C/c2ccc(Cl)cc2)CCC1 (centres undefined)
**Result** 60.4
